# Assay Target: TDP-43 102-269 (RRM1-RRM2) (human, UniProt Q13148 102-269)
# Sequence (Q13148 102-269): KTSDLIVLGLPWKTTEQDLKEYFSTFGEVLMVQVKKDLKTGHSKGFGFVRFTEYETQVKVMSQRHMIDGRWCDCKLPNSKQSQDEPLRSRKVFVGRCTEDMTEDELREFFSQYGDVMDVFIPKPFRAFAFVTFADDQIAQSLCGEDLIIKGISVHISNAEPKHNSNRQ
# Assay Remarks: ALPHA
Metric Name: pKd
In plain terms, pKd is the concentration in mol/L turned into minus its base-10 logarithm.

The measured pKd associated with UGUGUGUGUGUG (ssRNA) [(UG)6] reads 9.14
